Reported 50% inhibition concentration, Regnase-1 phosphorylation by IKKβ (AlphaScreen) values follow for various binders
Target: T1, full-length human Regnase-1 with a FLAG tag on the N-terminal side and a biotin ligase BirA recognition … (human, UniProt Q5D1E8 1-599, biotinylated at the BirA recognition sequence when required)
T1 sequence: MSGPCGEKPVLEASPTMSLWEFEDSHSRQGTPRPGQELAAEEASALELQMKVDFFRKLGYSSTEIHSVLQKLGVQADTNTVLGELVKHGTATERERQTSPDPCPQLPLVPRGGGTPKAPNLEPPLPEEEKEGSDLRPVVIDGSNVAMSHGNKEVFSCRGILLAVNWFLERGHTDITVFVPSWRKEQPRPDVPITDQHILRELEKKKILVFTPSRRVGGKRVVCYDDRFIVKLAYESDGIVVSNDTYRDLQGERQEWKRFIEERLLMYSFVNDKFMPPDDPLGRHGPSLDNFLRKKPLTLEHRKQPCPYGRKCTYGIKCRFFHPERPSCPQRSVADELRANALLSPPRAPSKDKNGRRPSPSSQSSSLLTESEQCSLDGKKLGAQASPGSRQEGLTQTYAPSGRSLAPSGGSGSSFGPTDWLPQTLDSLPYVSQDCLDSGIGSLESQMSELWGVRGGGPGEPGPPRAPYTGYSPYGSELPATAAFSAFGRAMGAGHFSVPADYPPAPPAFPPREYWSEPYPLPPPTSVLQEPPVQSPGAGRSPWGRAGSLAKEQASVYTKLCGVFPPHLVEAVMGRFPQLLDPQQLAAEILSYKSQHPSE
Assay: cell-based or functional assay
Positions of bridges follow the written chain, without caps; N, C: chain ends. Non-standard residues stand in square brackets, D forms with d. *: point of attachment. Pyrrolidide = C1CCN(*)C1; dNMeA = CN[C@H](C)C(=O)O
Quick note: give the figure in µM, leave out the unit.

>  <binder>
XRFRQWKWVYPD (HELM PEPTIDE1{[meA].R.F.R.Q.W.K.W.V.Y.P.D.[C1CCN([*:1])C1]}$PEPTIDE1,PEPTIDE1,1:R1-12:R3$$$V2.0; SMILES CC(C)[C@@H]1NC(=O)[C@H](Cc2c[nH]c3ccccc23)NC(=O)[C@H](CCCCN)NC(=O)[C@H](Cc2c[nH]c3ccccc23)NC(=O)[C@H](CCC(N)=O)NC(=O)[C@H](CCCNC(=N)N)NC(=O)[C@H](Cc2ccccc2)NC(=O)[C@H](CCCNC(=N)N)NC(=O)[C@H](C)N(C)C(=O)C[C@@H](C(=O)N2CCCC2)NC(=O)[C@@H]2CCCN2C(=O)[C@H](Cc2ccc(O)cc2)NC1=O) [PP13]

>  <reading-unit>
µM

>  <result-number>
3.6

$$$$

stdin: Bench note: what 50% inhibition concentration, Regnase-1 phosphorylation by IKKβ (AlphaScreen) did [dNMeA]PTSSWYKIWD-Pyrrolidide (lactam N-11) [PP23] show?
stdout: 25.6

stdin: Bench note: what 50% inhibition concentration, Regnase-1 phosphorylation by IKKβ (AlphaScreen) did XTSWYKVNWGQD (HELM PEPTIDE1{[meA].T.S.W.Y.K.V.N.W.G.Q.D.[C1CCN([*:1])C1]}$PEPTIDE1,PEPTIDE1,1:R1-12:R3$$$V2.0; SMILES CC(C)[C@@H]1NC(=O)[C@H](CCCCN)NC(=O)[C@H](Cc2ccc(O)cc2)NC(=O)[C@H](Cc2c[nH]c3ccccc23)NC(=O)[C@H](CO)NC(=O)[C@H]([C@@H](C)O)NC(=O)[C@H](C)N(C)C(=O)C[C@@H](C(=O)N2CCCC2)NC(=O)[C@H](CCC(N)=O)NC(=O)CNC(=O)[C@H](Cc2c[nH]c3ccccc23)NC(=O)[C@H](CC(N)=O)NC1=O) [PP1] show?
stdout: 28.1
